Provide the recorded percentage inhibition, product PAF, mLPCAT1 for the entries that follow.
targetDesc: mLPCAT1 (Mus musculus)
Construct: expressed in transfected cells; host or cells: CHO-S-PAFR cells, microsomal fraction
Sequence (Q3TFD2 1-534): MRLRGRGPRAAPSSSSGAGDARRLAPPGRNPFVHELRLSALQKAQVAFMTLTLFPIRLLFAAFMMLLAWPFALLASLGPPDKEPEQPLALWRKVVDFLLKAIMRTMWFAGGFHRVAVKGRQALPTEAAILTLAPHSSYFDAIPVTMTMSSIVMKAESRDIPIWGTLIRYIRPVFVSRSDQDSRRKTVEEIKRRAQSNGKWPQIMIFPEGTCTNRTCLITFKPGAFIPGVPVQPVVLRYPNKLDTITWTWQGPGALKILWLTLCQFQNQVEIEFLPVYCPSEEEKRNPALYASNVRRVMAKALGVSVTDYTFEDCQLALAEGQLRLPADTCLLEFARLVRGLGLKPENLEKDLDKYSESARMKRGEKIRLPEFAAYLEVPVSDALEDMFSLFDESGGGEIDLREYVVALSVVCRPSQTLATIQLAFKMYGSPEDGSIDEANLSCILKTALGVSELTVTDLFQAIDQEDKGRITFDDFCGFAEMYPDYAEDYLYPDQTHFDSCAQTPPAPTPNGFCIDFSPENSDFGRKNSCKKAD
procedureText: lyso-PAFAT (acetyltransferase) activity assay, PAF product
Format: biochemical
setupConditions: 20 μM compound; microsomal fractions of nonstimulated CHO-S-PAFR cells; n = 3, mean ± SEM
Answers are plain numbers, in percentage.

structureSmilesString	targetDesc	valueObserved
CC(C)OC(=O)c1ccc(N2C(=O)C(Cl)=C(Cl)C2=O)cc1	mLPCAT1 (Mus musculus)	89.2

I have 3 compounds here; please give me percentage inhibition, product PAF, mLPCAT1 for each one.
1. CCCOC(=O)c1ccc(N2C(=O)C(Cl)=C(Cl)C2=O)cc1
2. CC(C)OC(=O)c1ccc(N2C(=O)C(Cl)=C(Nc3ccccc3O)C2=O)cc1
3. CCCCOC(=O)c1ccc(N2C(=O)C(Cl)=C(Cl)C2=O)cc1

Result:
1. 89.6
2. 33.6
3. 89.3

---

Consider the following compounds; for each one, report its percentage inhibition, product PAF, hLPCAT2.
targetDesc: hLPCAT2 (Homo sapiens, UniProt Q7L5N7)
Construct: expressed in transfected cells; host or cells: CHO-S-PAFR cells (microsomal fraction), with or without mcPAF stimulation
Sequence (Q7L5N7 whole entry): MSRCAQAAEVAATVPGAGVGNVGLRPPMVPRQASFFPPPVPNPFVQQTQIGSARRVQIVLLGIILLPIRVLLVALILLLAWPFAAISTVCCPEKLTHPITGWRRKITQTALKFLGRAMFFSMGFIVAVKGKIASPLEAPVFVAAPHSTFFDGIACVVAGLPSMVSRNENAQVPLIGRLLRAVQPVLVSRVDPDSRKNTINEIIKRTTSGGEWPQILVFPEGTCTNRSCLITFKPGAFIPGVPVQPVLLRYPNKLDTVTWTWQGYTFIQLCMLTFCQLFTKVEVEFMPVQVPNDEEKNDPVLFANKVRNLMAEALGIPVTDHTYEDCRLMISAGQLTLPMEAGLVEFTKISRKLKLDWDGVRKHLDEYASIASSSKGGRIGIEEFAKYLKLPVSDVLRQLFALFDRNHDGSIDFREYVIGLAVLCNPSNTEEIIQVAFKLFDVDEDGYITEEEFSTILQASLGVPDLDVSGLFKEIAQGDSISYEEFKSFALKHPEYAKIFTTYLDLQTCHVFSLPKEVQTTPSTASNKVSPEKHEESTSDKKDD
procedureText: lyso-PAFAT (acetyltransferase) activity assay, PAF product by LC-MS/MS
Format: biochemical
setupConditions: 20 μM compound; microsomal fractions of nonstimulated CHO-S-PAFR cells; n = 3, mean ± SEM
Method: Microsomal protein fractions (0.5 μg) supplemented with the indicated compound concentrations were added to the reaction mixture containing 100 mM Tris-HCl (pH 7.4), 1 μM CaCl2, 0.015% Tween-20, and two substrates. […] Deuterium-labeled products were analyzed by LC-MS/MS (Waters, Milford, MA and Thermo Scientific, Waltham, MA). […] For step 5, compound concentrations were 0, 0.167, 0.67, 2, 6.7, and 20 µM. The deuterium-labeled products were measured by LC-MS/MS. […]
Numbers only, in percentage.

Below are worked cases with known answers.
compound	unitText	valueObserved
CCCCOC(=O)c1ccc(N2C(=O)C(Cl)=C(Cl)C2=O)cc1 [TSI-11]	percentage	99.4
CC(C)OC(=O)c1ccc(N2C(=O)C(Cl)=C(Nc3ccccc3O)C2=O)cc1 [TSI-07]	percentage	90.8
CCCOC(=O)c1ccc(N2C(=O)C(Cl)=C(Cl)C2=O)cc1 [TSI-10]	percentage	99.5

Query: What percentage inhibition, product PAF, hLPCAT2 appears in the records for this compound with hLPCAT2 (Homo sapiens, UniProt Q7L5N7)? CC(C)OC(=O)c1ccc(N2C(=O)C(Cl)=C(Cl)C2=O)cc1 [TSI-01]
Result: 99.8

---

Task for the reader: assign each of the following compounds its reported percentage inhibition, product PAF, mLPCAT2.
targetDesc: mLPCAT2 (Mus musculus)
Construct: expressed in transfected cells; host or cells: CHO-S-PAFR cells, microsomal fraction, with or without mcPAF stimulation
Sequence (Q8BYI6 1-544): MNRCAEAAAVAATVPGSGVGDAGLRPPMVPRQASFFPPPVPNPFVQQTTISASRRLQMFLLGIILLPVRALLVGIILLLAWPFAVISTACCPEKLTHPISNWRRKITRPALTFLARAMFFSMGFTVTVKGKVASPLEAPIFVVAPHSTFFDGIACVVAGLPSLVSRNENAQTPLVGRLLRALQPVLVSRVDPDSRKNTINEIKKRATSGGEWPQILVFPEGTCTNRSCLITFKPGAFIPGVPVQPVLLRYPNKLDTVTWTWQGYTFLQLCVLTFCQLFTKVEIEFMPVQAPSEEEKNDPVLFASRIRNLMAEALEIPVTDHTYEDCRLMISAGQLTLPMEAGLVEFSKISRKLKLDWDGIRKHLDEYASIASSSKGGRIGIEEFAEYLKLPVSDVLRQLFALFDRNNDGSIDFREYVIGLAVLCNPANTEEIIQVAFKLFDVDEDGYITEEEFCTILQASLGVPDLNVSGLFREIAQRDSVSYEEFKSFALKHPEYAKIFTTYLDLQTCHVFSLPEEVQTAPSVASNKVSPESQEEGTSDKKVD
procedureText: lyso-PAFAT (acetyltransferase) activity assay, PAF product
Assay type: biochemical
setupConditions: 20 μM compound; microsomal fractions of nonstimulated CHO-S-PAFR cells; n = 3, mean ± SEM

Worked examples follow.
structureSmilesString	valueObserved
CCCOC(=O)c1ccc(N2C(=O)C(Cl)=C(Cl)C2=O)cc1	99.1 ± 0.2 percentage
CC(C)OC(=O)c1ccc(N2C(=O)C(Cl)=C(Nc3ccccc3O)C2=O)cc1	84.1 ± 6.4 percentage
CC(C)OC(=O)c1ccc(N2C(=O)C(Cl)=C(Cl)C2=O)cc1	99.2 ± 0.2 percentage

Here is another compound to look at.
Query: Record CCCCOC(=O)c1ccc(N2C(=O)C(Cl)=C(Cl)C2=O)cc1 : what is its percentage inhibition, product PAF, mLPCAT2 with mLPCAT2 (Mus musculus)?
Result: 98.9 ± 0.3 percentage

---

targetDesc: mLPCAT2 (Mus musculus)
Construct: expressed in transfected cells; host or cells: CHO-S-PAFR cells, microsomal fraction, with or without mcPAF stimulation
procedureText: acyltransferase activity assay, 16:0/20:4 alkyl-PC product
Assay type: biochemical
setupConditions: 20 μM compound; microsomal fractions of nonstimulated CHO-S-PAFR cells; n = 3, mean ± SEM
valueKind: percentage inhibition, product 16:0/20:4 Alkyl-PC, mLPCAT2 (percentage)
Numbers only, in percentage.

Check out these entries, answers already filled in.
structureSmilesString	valueObserved
CC(C)OC(=O)c1ccc(N2C(=O)C(Cl)=C(Nc3ccccc3O)C2=O)cc1	82.4
CCCOC(=O)c1ccc(N2C(=O)C(Cl)=C(Cl)C2=O)cc1	86.7
CC(C)OC(=O)c1ccc(N2C(=O)C(Cl)=C(Cl)C2=O)cc1	95.5

Below: the item to evaluate.
Query: Sample CCCCOC(=O)c1ccc(N2C(=O)C(Cl)=C(Cl)C2=O)cc1 — what was its percentage inhibition, product 16:0/20:4 Alkyl-PC, mLPCAT2?
Result: 83.0

---

targetDesc: hLPCAT1 (Homo sapiens, UniProt Q8NF37)
Construct: expressed in transfected cells
Sequence (Q8NF37 1-534): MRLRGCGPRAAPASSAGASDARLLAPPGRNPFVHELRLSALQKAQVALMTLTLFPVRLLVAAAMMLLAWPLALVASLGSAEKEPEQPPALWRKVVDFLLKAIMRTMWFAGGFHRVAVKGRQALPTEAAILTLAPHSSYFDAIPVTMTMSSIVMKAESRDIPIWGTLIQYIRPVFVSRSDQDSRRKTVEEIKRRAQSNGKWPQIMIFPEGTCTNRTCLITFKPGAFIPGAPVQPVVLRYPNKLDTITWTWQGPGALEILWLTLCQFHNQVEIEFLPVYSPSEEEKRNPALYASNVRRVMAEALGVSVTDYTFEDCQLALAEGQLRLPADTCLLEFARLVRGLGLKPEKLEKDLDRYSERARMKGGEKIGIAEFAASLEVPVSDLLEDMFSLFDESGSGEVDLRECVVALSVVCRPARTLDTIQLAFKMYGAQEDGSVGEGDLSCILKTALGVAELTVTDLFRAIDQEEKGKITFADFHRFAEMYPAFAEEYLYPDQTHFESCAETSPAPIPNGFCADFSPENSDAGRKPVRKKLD
procedureText: acyltransferase activity assay, DPPC product by LC-MS/MS
Type: biochemical
setupConditions: 20 μM compound; microsomal fractions of nonstimulated CHO-S-PAFR cells; n = 3, mean ± SEM
Give measured percentage inhibition, product DPPC, hLPCAT1 for each item. Keep answers brief.
Numbers only, in percentage.

Here's what some known entries look like.
structureSmilesString	unitText	valueObserved
CC(C)OC(=O)c1ccc(N2C(=O)C(Cl)=C(Cl)C2=O)cc1	percentage	25.3
CCCOC(=O)c1ccc(N2C(=O)C(Cl)=C(Cl)C2=O)cc1	percentage	23.9
CCCCOC(=O)c1ccc(N2C(=O)C(Cl)=C(Cl)C2=O)cc1	percentage	14.2

Consider the record given below.
Query: Which percentage inhibition, product DPPC, hLPCAT1 value belongs to CC(C)OC(=O)c1ccc(N2C(=O)C(Cl)=C(Nc3ccccc3O)C2=O)cc1 ?
Result: 19.5
